Tested on: MDA-MB-231 cells
Test: AlamarBlue cell viability assay
Assay type: cell-based
Conditions: Homo sapiens, MDA-MB-231, 72 h

- compound: "COc1ccc(/C=C\\c2cc(OC)c(OC)c(OC)c2)cc1O [CA-4, combretastatin A-4, reference compound]"
  IC50: "0.043 µM"
- compound: "COc1ccc(C2C(F)C(=O)N2c2cc(OC)c(OC)c(OC)c2)cc1F (centres unmarked) [Compound 33]"
  IC50: "0.62 µM"

###

Test: Stability under degradation conditions (HPLC)
Type: physicochemical
Conditions: 3% H2O2 added to stock solution, oxidative (3% H2O2)
Reported remaining at 4 h, 0.8 mg/mL is given for each of the following compounds.

- compound: "COc1ccc(C2C(F)C(=O)N2c2cc(OC)c(OC)c(OC)c2)cc1F (centres unmarked)"
  remaining at 4 h, 0.8 mg/mL [%]: 65
- compound: "CCSc1ccc(C2N(c3cc(OC)c(OC)c(OC)c3)C(=O)C2(F)F)cc1 (centres unmarked)"
  remaining at 4 h, 0.8 mg/mL [%]: 50

From: paper PMC9501633
